Reference for the values: patent US8623429B2

Test: Example 1: stability of bilberry extract anthocyanosides, 4 hours at 37° C., pH 7.0, with/without DHLA or GSH (HPLC)
Format: physicochemical
Conditions: unprotected, pH 7.0, 37° C., 4 hours
Parameter measured: % left, Blank (4 hours) (%)
Write down the numeric answer in % and omit the unit.

Before answering, review these 4 worked examples.
Compound	Parameter measured	Result units	Observed value
COc1cc(-c2[o+]c3cc(O)cc(O)c3cc2O[C@@H]2O[C@H](CO)[C@@H](O)[C@H](O)[C@H]2O)cc(O)c1O [Pt-3O-Glc, Petunidin 3-o-glucoside]	% left, Blank (4 hours)	%	16.6
COc1cc(-c2[o+]c3cc(O)cc(O)c3cc2O[C@@H]2OC[C@H](O)[C@H](O)[C@H]2O)cc(OC)c1O [Mv-3O-Ara, Malvidin 3-o-arabinoside]	% left, Blank (4 hours)	%	34.0
Oc1cc(O)c2cc(O[C@H]3OC[C@H](O)[C@H](O)[C@H]3O)c(-c3cc(O)c(O)c(O)c3)[o+]c2c1 [Dp-3O-Ara, Delphinidin 3-o-arabinoside]	% left, Blank (4 hours)	%	6.9
COc1cc(-c2[o+]c3cc(O)cc(O)c3cc2OC2OC(CO)C(O)C(O)C2O)cc(O)c1O (centres unmarked) [Pt-3O-Gal, Petunidin 3-o-galactoside]	% left, Blank (4 hours)	%	18.8

Query: Report % left, Blank (4 hours) for COc1cc(-c2[o+]c3cc(O)cc(O)c3cc2O[C@@H]2O[C@H](CO)[C@@H](O)[C@H](O)[C@H]2O)cc(OC)c1O [Mv-3O-Glc, Malvidin 3-o-glucoside]
Result: 36.1

Query: Report % left, Blank (4 hours) for COc1cc(-c2[o+]c3cc(O)cc(O)c3cc2O[C@@H]2O[C@H](CO)[C@@H](O)[C@H](O)[C@H]2O)ccc1O [Pe-3O-Glc, Peonidin 3-o-glucoside]
Result: 42.4

Query: Report % left, Blank (4 hours) for OC[C@H]1O[C@@H](Oc2cc3c(O)cc(O)cc3[o+]c2-c2cc(O)c(O)c(O)c2)[C@H](O)[C@@H](O)[C@H]1O [Dp-3O-Gal, Delphinidin 3-o-galactoside]
Result: 7.8

Query: Report % left, Blank (4 hours) for Oc1cc(O)c2cc(O[C@@H]3OC[C@H](O)[C@H](O)[C@H]3O)c(-c3ccc(O)c(O)c3)[o+]c2c1 [Cn-3O-Ara, Cyanidin 3-o-arabinoside]
Result: 38.5

###

Experiment: Example 3: stability of black currant extract anthocyanosides, 4 hours at 37° C., pH 7.0, with/without DHLA, GSH or L-cysteine (HPLC)
Type: physicochemical
Details: black currant extract 60 mg/100 ml buffer pH 7.0, fresh sample
In this section, each of the molecules is paired with its reported Peak Area, Fresh solution.
Returns: the value as a bare number; no unit string appended.

Before answering, review these 3 worked examples.
Molecule	Peak Area, Fresh solution
OC[C@H]1O[C@@H](Oc2cc3c(O)cc(O)cc3[o+]c2-c2cc(O)c(O)c(O)c2)[C@H](O)[C@@H](O)[C@@H]1O [Dp-3O-Glc, Delphinidin 3-o-glucoside]	1481
C[C@@H]1O[C@@H](OC[C@H]2O[C@@H](Oc3cc4c(O)cc(O)cc4[o+]c3-c3cc(O)c(O)c(O)c3)[C@H](O)[C@@H](O)[C@@H]2O)[C@H](O)[C@H](O)[C@H]1O [Dp-3-O-Rut, Delphinidin-3-O-rutinoside]	5207
OC[C@H]1O[C@@H](Oc2cc3c(O)cc(O)cc3[o+]c2-c2ccc(O)c(O)c2)[C@H](O)[C@@H](O)[C@@H]1O [Cn-3O-Glc, Cyanidin 3-o-glucoside]	491.1

Please turn your attention to the following entry.
Query: Report Peak Area, Fresh solution for C[C@@H]1O[C@@H](OC[C@H]2O[C@@H](Oc3cc4c(O)cc(O)cc4[o+]c3-c3ccc(O)c(O)c3)[C@H](O)[C@@H](O)[C@@H]2O)[C@H](O)[C@H](O)[C@H]1O [Cn-3-O-Rut, Cyanidin-3-O-rutinoside]
Result: 3539
